Assayed system: LRRK2 (G2019S) (Homo sapiens, UniProt Q5S007, G2019S)
Sequence (Q5S007 970-2527 G2019S limits assumed): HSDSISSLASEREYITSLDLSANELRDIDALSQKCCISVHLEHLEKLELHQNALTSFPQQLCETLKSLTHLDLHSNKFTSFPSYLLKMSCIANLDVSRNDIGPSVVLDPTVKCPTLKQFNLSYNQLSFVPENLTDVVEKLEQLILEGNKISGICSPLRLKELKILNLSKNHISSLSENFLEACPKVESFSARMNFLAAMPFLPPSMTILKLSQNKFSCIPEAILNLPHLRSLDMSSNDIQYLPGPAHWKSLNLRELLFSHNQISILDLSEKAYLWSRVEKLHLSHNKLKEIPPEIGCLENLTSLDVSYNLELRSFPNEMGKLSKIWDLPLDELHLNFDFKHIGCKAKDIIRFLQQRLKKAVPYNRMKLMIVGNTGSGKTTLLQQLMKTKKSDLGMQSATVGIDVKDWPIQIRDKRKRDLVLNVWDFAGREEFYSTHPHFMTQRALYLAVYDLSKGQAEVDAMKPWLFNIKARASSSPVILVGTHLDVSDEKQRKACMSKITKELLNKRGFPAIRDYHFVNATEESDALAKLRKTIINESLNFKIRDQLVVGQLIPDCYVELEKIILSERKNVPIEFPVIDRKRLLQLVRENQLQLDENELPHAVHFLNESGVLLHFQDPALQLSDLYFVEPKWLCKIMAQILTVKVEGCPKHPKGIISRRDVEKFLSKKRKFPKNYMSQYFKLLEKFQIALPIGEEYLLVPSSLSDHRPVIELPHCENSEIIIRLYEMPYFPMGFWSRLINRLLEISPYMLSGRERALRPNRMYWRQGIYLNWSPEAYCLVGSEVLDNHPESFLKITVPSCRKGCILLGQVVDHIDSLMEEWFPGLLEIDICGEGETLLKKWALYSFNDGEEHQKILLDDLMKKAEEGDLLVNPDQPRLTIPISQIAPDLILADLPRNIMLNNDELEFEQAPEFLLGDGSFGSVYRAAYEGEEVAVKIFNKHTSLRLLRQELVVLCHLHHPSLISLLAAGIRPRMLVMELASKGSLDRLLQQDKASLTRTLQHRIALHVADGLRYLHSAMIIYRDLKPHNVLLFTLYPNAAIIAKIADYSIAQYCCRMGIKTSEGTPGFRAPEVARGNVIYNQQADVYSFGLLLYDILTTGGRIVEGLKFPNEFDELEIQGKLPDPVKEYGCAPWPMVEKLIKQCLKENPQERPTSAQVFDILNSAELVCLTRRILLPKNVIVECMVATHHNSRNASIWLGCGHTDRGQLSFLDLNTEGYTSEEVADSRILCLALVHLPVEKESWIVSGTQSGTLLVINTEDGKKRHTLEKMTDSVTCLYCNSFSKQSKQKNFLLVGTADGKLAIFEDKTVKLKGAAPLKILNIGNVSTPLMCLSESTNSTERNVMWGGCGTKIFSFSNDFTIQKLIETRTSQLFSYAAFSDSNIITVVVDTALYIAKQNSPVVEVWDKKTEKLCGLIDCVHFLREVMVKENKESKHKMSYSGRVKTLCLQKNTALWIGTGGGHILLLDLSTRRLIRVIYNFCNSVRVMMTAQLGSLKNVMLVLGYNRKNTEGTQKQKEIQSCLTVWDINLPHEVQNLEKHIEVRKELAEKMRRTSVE
Assay protocol: LRRK2 G2019S enzyme inhibition, ADP-Glo kinase assay
In this section, each of the compounds is paired with its reported IC50.

Here's what some known entries look like.
COc1cc(S(C)(=O)=O)ccc1Nc1cc(C2CC2)c2c(C#N)c[nH]c2n1 = 301 to 1000 nM
COCCNc1cc(Nc2ccc(C(=O)N3CCC(N4CCOCC4)CC3)c3c2OCC3)nc2[nH]cc(C(F)(F)F)c12 = < 100 nM
CS(=O)(=O)CCNc1cc(Nc2ccc(C(=O)N3CCOCC3)c3c2OCCO3)nc2[nH]ccc12 = < 100 nM

**Query** Supply recorded IC50 for `COc1cc(P2(=O)CCN(C(C)=O)CC2)ccc1Nc1cc(C2CC2)c2c(C(F)(F)F)c[nH]c2n1` here.
**Result** 301 to 1000 nM

###

Assayed system: LRRK2 (G2019S) (Homo sapiens, UniProt Q5S007, G2019S)
Assay protocol: LRRK2 G2019S enzyme inhibition, ADP-Glo kinase assay
pIC50: −log10 of the molar value.
In this section, each of the compounds is paired with its reported pIC50.

Here's what some known entries look like.
CNc1cc(Nc2ccc(P3(=O)CCN(C4CCOCC4)CC3)cc2OC)nc2[nH]cc(C(F)(F)F)c12 = 6.52 to 7.00
CCCNc1cc(Nc2ccc(S(C)(=O)=O)cc2OC)nc2[nH]cc(C(F)(F)F)c12 = 6.00 to 6.52
COc1cc(S(=O)(=O)N2CCOCC2)ccc1Nc1cc(NC2CCCCC2)c2c(C(F)(F)F)c[nH]c2n1 = 6.00 to 6.52

**Query** Supply recorded pIC50 for `CCNc1cc(Nc2ccc(C(=O)N3CCOCC3)c3c2OCCO3)nc2[nH]cc(C(F)(F)F)c12` here.
**Result** 6.52 to 7.00

###

Assayed system: MYLK (Homo sapiens)
Construct: purchased DiscoverX
Sequence (Q15746 whole entry): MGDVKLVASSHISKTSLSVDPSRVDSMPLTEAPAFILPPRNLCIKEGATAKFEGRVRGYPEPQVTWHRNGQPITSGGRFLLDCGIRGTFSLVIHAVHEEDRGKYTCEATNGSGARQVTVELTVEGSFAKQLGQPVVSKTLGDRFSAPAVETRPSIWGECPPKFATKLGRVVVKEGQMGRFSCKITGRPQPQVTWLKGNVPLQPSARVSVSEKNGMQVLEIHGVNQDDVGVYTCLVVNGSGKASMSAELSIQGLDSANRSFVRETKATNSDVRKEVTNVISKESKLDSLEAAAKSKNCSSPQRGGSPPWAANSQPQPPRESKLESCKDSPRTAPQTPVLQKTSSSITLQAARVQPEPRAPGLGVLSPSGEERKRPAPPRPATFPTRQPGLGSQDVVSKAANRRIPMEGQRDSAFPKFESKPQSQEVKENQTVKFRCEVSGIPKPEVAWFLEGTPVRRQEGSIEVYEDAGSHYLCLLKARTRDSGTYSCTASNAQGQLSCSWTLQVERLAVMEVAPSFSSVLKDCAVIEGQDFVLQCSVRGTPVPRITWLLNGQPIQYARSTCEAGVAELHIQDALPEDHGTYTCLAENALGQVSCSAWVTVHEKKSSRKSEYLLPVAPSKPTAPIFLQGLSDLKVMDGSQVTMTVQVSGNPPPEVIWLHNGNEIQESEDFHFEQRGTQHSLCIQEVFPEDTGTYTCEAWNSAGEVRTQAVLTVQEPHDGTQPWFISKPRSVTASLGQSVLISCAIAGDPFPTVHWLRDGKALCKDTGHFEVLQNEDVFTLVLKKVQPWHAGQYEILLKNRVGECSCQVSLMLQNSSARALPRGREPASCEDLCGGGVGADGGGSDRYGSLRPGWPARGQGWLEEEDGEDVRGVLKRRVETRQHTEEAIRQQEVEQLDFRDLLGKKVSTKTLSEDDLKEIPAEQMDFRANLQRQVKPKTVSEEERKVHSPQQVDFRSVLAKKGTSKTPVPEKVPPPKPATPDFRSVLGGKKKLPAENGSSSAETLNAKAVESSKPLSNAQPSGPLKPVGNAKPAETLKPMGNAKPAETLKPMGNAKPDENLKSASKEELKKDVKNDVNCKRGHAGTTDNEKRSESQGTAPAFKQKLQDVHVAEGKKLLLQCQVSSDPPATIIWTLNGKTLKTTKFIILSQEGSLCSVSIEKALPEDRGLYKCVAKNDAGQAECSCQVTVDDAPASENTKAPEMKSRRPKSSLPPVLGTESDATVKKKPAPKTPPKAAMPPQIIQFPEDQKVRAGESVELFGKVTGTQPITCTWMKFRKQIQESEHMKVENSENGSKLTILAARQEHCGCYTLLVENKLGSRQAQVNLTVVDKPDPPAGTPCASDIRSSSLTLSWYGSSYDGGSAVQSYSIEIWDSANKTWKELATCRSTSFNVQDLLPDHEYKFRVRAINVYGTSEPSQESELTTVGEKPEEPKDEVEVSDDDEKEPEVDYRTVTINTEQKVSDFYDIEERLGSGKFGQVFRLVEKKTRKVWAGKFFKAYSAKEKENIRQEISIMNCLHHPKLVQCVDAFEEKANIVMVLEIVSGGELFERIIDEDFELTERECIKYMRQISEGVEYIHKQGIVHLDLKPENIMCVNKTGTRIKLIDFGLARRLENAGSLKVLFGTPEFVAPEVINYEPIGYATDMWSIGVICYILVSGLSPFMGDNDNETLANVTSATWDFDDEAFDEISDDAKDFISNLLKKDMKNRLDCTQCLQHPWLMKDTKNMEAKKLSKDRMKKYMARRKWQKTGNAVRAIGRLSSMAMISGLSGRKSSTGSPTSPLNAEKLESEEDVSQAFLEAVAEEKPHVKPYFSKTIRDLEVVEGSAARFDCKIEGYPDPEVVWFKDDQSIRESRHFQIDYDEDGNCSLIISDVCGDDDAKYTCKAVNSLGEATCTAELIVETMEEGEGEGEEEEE
Assay protocol: scanMAX Kinase panel (DiscoverX), % control
Format: binding
Setup conditions: <35% = active
Output true (1) for records whose remaining binding at 1 µM is lower than 30%, false (0) for records at or above 30%.

CCNc1cc(Nc2ccc(S(=O)(=O)N3CCC(N4CCOCC4)CC3)c3c2OCCO3)nc2[nH]cc(C(F)(F)F)c12 [Example 96] = false (0)
O=C(c1ccc(Nc2cc(C3CC3)c3c(C(F)(F)F)c[nH]c3n2)c2c1CCO2)N1CC[C@@H](N2CCOCC2)C1 [Example 238] = false (0)
CNc1cc(Nc2ccc(P3(=O)CCN(C4CC4)CC3)cc2OC)nc2[nH]cc(C(F)(F)F)c12 [Example 205] = true (1)

**Query** Consider CCCNc1cc(Nc2ccc(C(=O)N3CCC(N4CCOCC4)CC3)c3c2OCCO3)nc2[nH]cc(C(F)(F)F)c12 [Example 162] . Does its remaining binding at 1 µM lie strictly below 30%?
**Result** true (1)

**Query** Consider CCNc1cc(Nc2ccc(C(=O)N3CCC(N4C[C@@H]5C[C@H]4CO5)CC3)c3c2OCC3)nc2[nH]cc(C(F)(F)F)c12 [Example 105] . Does its remaining binding at 1 µM lie strictly below 30%?
**Result** true (1)

**Query** Consider COCCNc1cc(Nc2ccc(P3(=O)CCN(C4CC4)CC3)cc2OC)nc2[nH]cc(C(F)(F)F)c12 [Example 207] . Does its remaining binding at 1 µM lie strictly below 30%?
**Result** true (1)
